IC50, Wild-type human active MASTL (Homo sapiens (Human), UniProt Q96GX5), per-entry values.

Look over these answered cases.
[
  {
    "compound": "Cc1ncc2ccc(-c3nc(N)nc(N[C@H](c4c[nH]c(C(F)(F)F)n4)C(C)C)n3)cn12 (single isomer, unassigned) [Example 142B]",
    "IC50": "1 to 500 nM"
  },
  {
    "compound": "Cc1ncc2ccc(-c3nc(N)nc(NC(c4c[nH]c(C(F)(F)F)n4)C4CCCCC4)n3)cn12 (single isomer, unassigned) [Example 153A]",
    "IC50": "1 to 500 nM"
  }
]

Request: IC50, test system Wild-type human active MASTL (Homo sapiens (Human), UniProt Q96GX5), entry CNc1nc(N[C@H](c2c[nH]c(C(F)(F)F)n2)C(C)C)nc(-c2ccc3cnc(C)n3c2)n1 (single isomer, unassigned) [Example 149B]
1 to 500 nM

Request: IC50, test system Wild-type human active MASTL (Homo sapiens (Human), UniProt Q96GX5), entry CNc1nc(NCC(O)c2cccc(Cl)c2Cl)cc(-c2ccc3cnc(C)n3c2)n1 (single isomer, unassigned) [Example 143B]
> 1000 nM

Request: IC50, test system Wild-type human active MASTL (Homo sapiens (Human), UniProt Q96GX5), entry Cc1ncc2ccc(-c3nc(N)nc(N[C@@H](CC(C)C)c4c[nH]c(C(F)(F)F)n4)n3)cn12 (single isomer, unassigned) [Example 152B]
1 to 500 nM

Request: IC50, test system Wild-type human active MASTL (Homo sapiens (Human), UniProt Q96GX5), entry CC(C)CC(Nc1nc(N)nc(-c2ccc3cnn(C)c3c2)n1)c1c[nH]c(C(F)(F)F)n1 (single isomer, unassigned) [Example 180A]
> 1000 nM

Request: IC50, test system Wild-type human active MASTL (Homo sapiens (Human), UniProt Q96GX5), entry CC(C)CC(Nc1nc(N)nc(-c2ccc3cnn(C)c3c2)n1)c1c[nH]c(C(F)(F)F)n1 (single isomer, unassigned) [Example 180B]
1 to 500 nM

---

Overview of recorded IC50 for various compounds
Target: UniProt Q96GX5

[
  {
    "compound": "CNc1nc(N[C@@H](c2c[nH]c(C(F)(F)F)n2)C(C)C)nc(-c2ccc3cnc(C)n3c2)n1 (single isomer, unassigned) [Example 149A]",
    "measured.quantity": "IC50",
    "assay.result": "0.001 to 0.5 µM"
  }
]

Request: IC50, test system UniProt Q96GX5, entry Cc1ncc2ccc(-c3nc(N)nc(N[C@H](c4ccc(F)cn4)C(C)C)n3)cn12 (single isomer, unassigned) [Example 136B]
> 1 µM

Request: IC50, test system UniProt Q96GX5, entry Cc1ncc2ccc(-c3nc(N)nc(N[C@H](CC(C)C)c4c[nH]c(C(F)(F)F)n4)n3)cn12 (single isomer, unassigned) [Example 152A]
0.001 to 0.5 µM

---

IC50, Wild-type human active MASTL (Homo sapiens (Human), UniProt Q96GX5), per-entry values.

[
  {
    "compound": "Cc1ncc2ccc(-c3nc(N)nc(NC(c4c[nH]c(C(F)(F)F)n4)C4CCCCC4)n3)cn12 (single isomer, unassigned) [Example 153B]",
    "IC50": "1 to 500 nM"
  }
]

Continue with the next compound.
Request: IC50, test system Wild-type human active MASTL (Homo sapiens (Human), UniProt Q96GX5), entry Cc1ncc2ccc(-c3nc(N)nc(N[C@@H](CC4CC4)c4c[nH]c(C(F)(F)F)n4)n3)cn12 (single isomer, unassigned)
1 to 500 nM
